FYI, the data here is from patent US11358931B2.

Experiment: Pharmacokinetics in Sprague Dawley rats, repeat oral administration for 15 days
Type: in vivo, rat
Conditions: male, Sprague-Dawley, rat, plasma, po, 1 mg/kg, SD rats, oral gavage, Day 1, 1 mg/kg, Male
quantity.measured: half-life (h)

INSERT INTO results (smiles_input, numeric_readout) VALUES
  ('N#Cc1ccc(N2CCC[C@@H]2[C@@H](O)C(F)(F)F)cc1C(F)(F)F', 5.2);

====

Assay: Pharmacokinetics in Sprague Dawley rats, repeat oral administration for 15 days
Format: in vivo, rat
Details: female, Sprague-Dawley, rat, plasma, po, 1 mg/kg, SD rats, oral gavage once daily, Day 15, 1 mg/kg, Female
quantity.measured: AUC(0-inf) (ng·h/mL)

INSERT INTO measurements (compound, quantity_measured, numeric_readout) VALUES
  ('N#Cc1ccc(N2CCC[C@@H]2[C@@H](O)C(F)(F)F)cc1C(F)(F)F [Compound 102]', 'AUC(0-inf)', 443);

====

Assay: Pharmacokinetics in orchidectomized male rats (plasma, Day 14)
Format: in vivo
Details: male, rat, po, 3 mg/kg, ORX male rats, Day 14, 3 mg/kg, 0 hr conc. substituted for 24 hr, read-out: AUC24
Description: In this assay, two-month old rats were acclimated in a vivarium for one week. After this acclimation period, rats were surgically orchidectomized under isoflurane anesthesia and left untreated for 14 days. After 14 days, animals were sorted into groups such that no statistically significant differences in mean body weights were observed. Rats began receiving treatment 14 days after the day of surgery. […] Peak pharmacokinetic (PK) parameters were calculated and rounded to three decimal places.
quantity.measured: AUC (ng·h/mL)

INSERT INTO assay_data (smiles_input, readout_unit, numeric_readout) VALUES
  ('N#Cc1ccc(N2CCC[C@@H]2[C@@H](O)C(F)(F)F)cc1C(F)(F)F', 'ng·h/mL', 234);

====

Assay: Pharmacokinetics in Sprague Dawley rats, repeat oral administration for 15 days
Format: in vivo, rat
Settings: male, Sprague-Dawley, rat, plasma, po, 10 mg/kg, SD rats, oral gavage once daily, Day 15, 10 mg/kg, Male, n = 2
quantity.measured: half-life (h)

INSERT INTO measurements (smiles_input, numeric_readout) VALUES
  ('N#Cc1ccc(N2CCC[C@@H]2[C@@H](O)C(F)(F)F)cc1C(F)(F)F', 3.9);

====

Molecular target: baculovirus expressed hAR protein (Homo sapiens)
Construct: made in house; host or cells: Sf-21 insect cells (baculovirus)
Sequence (P10275 whole entry): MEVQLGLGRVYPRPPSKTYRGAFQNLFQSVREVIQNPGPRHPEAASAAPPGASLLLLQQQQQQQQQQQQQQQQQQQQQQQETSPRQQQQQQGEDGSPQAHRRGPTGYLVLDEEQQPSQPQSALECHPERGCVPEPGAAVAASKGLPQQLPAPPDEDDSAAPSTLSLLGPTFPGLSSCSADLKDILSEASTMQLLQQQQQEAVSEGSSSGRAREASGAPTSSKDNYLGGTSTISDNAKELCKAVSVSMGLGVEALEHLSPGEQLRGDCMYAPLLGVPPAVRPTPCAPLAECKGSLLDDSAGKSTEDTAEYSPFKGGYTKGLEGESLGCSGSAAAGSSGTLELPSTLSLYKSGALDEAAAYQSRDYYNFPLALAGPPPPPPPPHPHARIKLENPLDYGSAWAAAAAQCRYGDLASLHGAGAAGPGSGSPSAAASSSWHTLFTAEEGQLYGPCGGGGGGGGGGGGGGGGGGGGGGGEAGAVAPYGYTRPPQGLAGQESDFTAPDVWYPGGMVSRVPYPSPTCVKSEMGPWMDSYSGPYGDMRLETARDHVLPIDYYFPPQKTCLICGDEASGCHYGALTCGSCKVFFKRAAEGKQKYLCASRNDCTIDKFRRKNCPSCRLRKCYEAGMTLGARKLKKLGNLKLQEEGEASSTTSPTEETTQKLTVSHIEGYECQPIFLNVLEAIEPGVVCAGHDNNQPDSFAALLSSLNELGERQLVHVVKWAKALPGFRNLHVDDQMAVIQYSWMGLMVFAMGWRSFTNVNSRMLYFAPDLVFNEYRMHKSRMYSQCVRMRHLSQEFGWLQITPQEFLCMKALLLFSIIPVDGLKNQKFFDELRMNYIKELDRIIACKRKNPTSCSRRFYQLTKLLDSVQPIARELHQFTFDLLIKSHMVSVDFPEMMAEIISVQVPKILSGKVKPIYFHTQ
Assay: Receptor binding assay ([3H]-dihydrotestosterone displacement)
pKi: −log10 of the molar value.
quantity.measured: pKi

INSERT INTO assay_data (compound, study_system, numeric_readout) VALUES
  ('O=[N+]([O-])c1ccc(N2CCC[C@@H]2[C@H](O)C(F)(F)F)cc1C(F)(F)F [LG0893411]', 'baculovirus expressed hAR protein (Homo sapiens)', 8.24),
  ('N#Cc1ccc(N2CCC[C@@H]2[C@@H](O)C(F)(F)F)cc1C(F)(F)F [Compound 102]', 'baculovirus expressed hAR protein (Homo sapiens)', 9.05),
  ('O=[N+]([O-])c1ccc(N2CCC[C@@H]2[C@@H](O)C(F)(F)F)cc1C(F)(F)F [LG0893410]', 'baculovirus expressed hAR protein (Homo sapiens)', 8.60);

====

Experiment: Pharmacokinetics in orchidectomized male rats (plasma, Day 14)
Format: in vivo
Settings: rat, ORX male rats, PO, Day 14, 10 mg/kg
quantity.measured: Tmax (h)

INSERT INTO measurements (smiles_input, readout_unit, numeric_readout) VALUES
  ('N#Cc1ccc(N2CCC[C@@H]2[C@@H](O)C(F)(F)F)cc1C(F)(F)F', 'h', 1.8);
